Where do these numbers come from? They come from patent US8372844B2.

Target: 5-HT2A receptor (Homo sapiens)
Sequence (P28223 whole entry): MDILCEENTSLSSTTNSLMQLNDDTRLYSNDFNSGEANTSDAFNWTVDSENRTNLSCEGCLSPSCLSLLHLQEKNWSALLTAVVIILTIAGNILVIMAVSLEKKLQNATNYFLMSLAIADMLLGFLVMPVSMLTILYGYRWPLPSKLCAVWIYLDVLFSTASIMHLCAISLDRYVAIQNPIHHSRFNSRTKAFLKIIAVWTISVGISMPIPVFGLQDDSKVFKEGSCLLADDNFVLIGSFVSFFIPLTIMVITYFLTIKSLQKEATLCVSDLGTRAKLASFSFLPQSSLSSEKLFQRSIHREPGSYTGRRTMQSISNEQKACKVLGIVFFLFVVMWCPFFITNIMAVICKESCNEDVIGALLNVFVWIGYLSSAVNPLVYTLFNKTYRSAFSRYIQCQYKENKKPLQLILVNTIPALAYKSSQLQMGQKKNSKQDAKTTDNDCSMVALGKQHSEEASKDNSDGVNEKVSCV
Assay: Serotonin receptor binding experiment, 5-HT2A
Parameters: species or system human or rat
Details: [3H]ketanserin 1 nM, 15 min at 37° C.; read-out: Receptor affinity (IC50, nM) 5-HT2A
Procedure: The measurement of affinity for serotonin 5-HT receptor family was performed according to the experimental conditions as specified in Table 2 below using the method same as in Experimental Example 1 above.
Record form. Attribute: IC50. Fill in for each entry.
Give me the value, and tack the unit on after it.

- molecule.smiles: "CCCc1cc(CCCN2CCN(c3ccc(Cl)c(Cl)c3)CC2)n(-c2ccccc2)n1"
  IC50: "45 nM"
- molecule.smiles: "CC(C)c1cc(CCCN2CCN(c3ccccc3F)CC2)n(-c2ccccc2)n1"
  IC50: "27 nM"
- molecule.smiles: "CCCc1cc(CCCN2CCN(c3cccc(C)c3C)CC2)n(-c2ccccc2)n1"
  IC50: "65 nM"
- molecule.smiles: "CCCc1cc(CCCN2CCN(c3ccc(C)c(C)c3)CC2)n(-c2ccccc2)n1"
  IC50: "8 nM"
- molecule.smiles: "CCCc1cc(CCCN2CCN(c3ccccc3F)CC2)n(-c2ccccc2)n1"
  IC50: "152 nM"

--- query ---
Lookup: Consider the compound CCCc1cc(CCCN2CCN(c3ccccc3)CC2)n(-c2ccccc2)n1 and give its measured IC50.
Found: 35 nM

---

Assign IC50 to each entry below.
Molecular target: Human recombinant dopamine D3 receptor (Homo sapiens, UniProt P35462)
Construct: purchased Euroscreen; host or cells: CHO cell line
Sequence (P35462 whole entry): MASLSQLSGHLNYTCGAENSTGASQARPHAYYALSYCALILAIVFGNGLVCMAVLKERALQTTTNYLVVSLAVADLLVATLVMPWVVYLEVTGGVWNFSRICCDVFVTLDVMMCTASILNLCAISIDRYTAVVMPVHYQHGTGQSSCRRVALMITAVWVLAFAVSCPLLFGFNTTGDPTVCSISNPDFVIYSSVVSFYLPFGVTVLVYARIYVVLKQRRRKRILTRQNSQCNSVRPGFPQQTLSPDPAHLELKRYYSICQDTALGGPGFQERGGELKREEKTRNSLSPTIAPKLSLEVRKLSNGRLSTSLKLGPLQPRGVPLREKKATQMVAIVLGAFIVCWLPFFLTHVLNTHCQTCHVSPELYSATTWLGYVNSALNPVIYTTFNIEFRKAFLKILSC
Test: Measurement of affinity for dopamine D3 receptor ([3H]spiperone binding)
Conditions: [3H]spiperone 0.8 nM, CHO cell line, 60 min at 27° C.
Give bare numbers, in nM.

Below are worked cases with known answers.
- molecule.smiles: "CCCc1cc(CCCN2CCN(c3ccc(Cl)c(Cl)c3)CC2)n(-c2ccccc2)n1"
  assay.result: 420
- molecule.smiles: "CCCc1cc(CCCN2CCN(c3ccccc3)CC2)n(-c2ccccc2)n1"
  assay.result: 461
- molecule.smiles: "CCCc1cc(CCCN2CCN(c3ccccc3F)CC2)n(-c2ccccc2)n1"
  assay.result: 87
- molecule.smiles: "CCCc1cc(CCCN2CCN(c3cccc(C)c3C)CC2)n(-c2ccccc2)n1"
  assay.result: 229
- molecule.smiles: "CC(C)c1cc(CCCN2CCN(c3ccccc3F)CC2)n(-c2ccccc2)n1"
  assay.result: 687

Now for another entry.
Lookup: Item CCCc1cc(CCCN2CCN(c3ccc(C)c(C)c3)CC2)n(-c2ccccc2)n1 with Human recombinant dopamine D3 receptor (Homo sapiens, UniProt P35462) - IC50?
Found: 131

---

System: rotarod deficit in mice
Assay: Rotarod deficit in mice
Type: in vivo
Conditions: mice, rod rotating at 6 rpm, 30-120 min after administration
Experimental: Each mouse was administered with a test drug, and then placed on a 1 inch diameter knurled plastic rod rotating at 6 rpm (Ugo-Basile, Milano, Italy), and the rotarod deficit (%) was obtained by counting the number of mice fallen from the rotating rod within 1 min at 30, 60, 90, and 120 min after the administration of the drug.
measurement.label: Rotarod deficit TD50 (mg/kg, ip) (mg/kg)
One number for each entry, in mg/kg.

- molecule.smiles: "CCCc1cc(CCCN2CCN(c3cccc(C)c3C)CC2)n(-c2ccccc2)n1"
  measurement.label: "Rotarod deficit TD50 (mg/kg, ip)"
  units.label: "mg/kg"
  assay.result: 24.6
- molecule.smiles: "CCCc1cc(CCCN2CCN(c3ccccc3F)CC2)n(-c2ccccc2)n1"
  measurement.label: "Rotarod deficit TD50 (mg/kg, ip)"
  units.label: "mg/kg"
  assay.result: 26.0
- molecule.smiles: "CCCc1cc(CCCN2CCN(c3ccc(C)c(C)c3)CC2)n(-c2ccccc2)n1"
  measurement.label: "Rotarod deficit TD50 (mg/kg, ip)"
  units.label: "mg/kg"
  assay.result: 35.3

Kindly give each listed record's Rotarod deficit TD50 (mg/kg, ip).
1. CC(C)c1cc(CCCN2CCN(c3ccccc3F)CC2)n(-c2ccccc2)n1
2. CCCc1cc(CCCN2CCN(c3ccccc3)CC2)n(-c2ccccc2)n1

Found:
1. 19.4
2. 28.5

---

Molecular target: 5-HT6 receptor (Homo sapiens, UniProt P50406)
Sequence (P50406 whole entry): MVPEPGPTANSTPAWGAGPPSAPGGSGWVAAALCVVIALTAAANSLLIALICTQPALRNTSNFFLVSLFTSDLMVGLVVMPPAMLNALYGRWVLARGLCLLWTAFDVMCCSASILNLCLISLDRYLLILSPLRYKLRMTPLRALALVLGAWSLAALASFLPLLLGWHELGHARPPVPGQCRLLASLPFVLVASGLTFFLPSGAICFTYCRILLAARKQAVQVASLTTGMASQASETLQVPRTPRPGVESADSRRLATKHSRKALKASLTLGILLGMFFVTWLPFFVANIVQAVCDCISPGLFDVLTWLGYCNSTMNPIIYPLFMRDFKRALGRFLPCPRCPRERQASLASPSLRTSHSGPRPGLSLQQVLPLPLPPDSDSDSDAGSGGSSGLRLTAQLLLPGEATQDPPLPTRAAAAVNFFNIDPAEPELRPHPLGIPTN
Assay: Serotonin receptor binding experiment, 5-HT6
Parameters: species or system human or rat
Conditions: [3H]LSD 1.8 nM, 60 min at 37° C.; read-out: Receptor affinity (IC50, nM) 5-HT6
Assign IC50 to each entry below.
One number for each entry, in nM.

Field: IC50. Fill in for each record below.
1. CCCc1cc(CCCN2CCN(c3cccc(C)c3C)CC2)n(-c2ccccc2)n1
2. CCCc1cc(CCCN2CCN(c3ccc(C)c(C)c3)CC2)n(-c2ccccc2)n1
3. CC(C)c1cc(CCCN2CCN(c3ccccc3F)CC2)n(-c2ccccc2)n1
4. CCCc1cc(CCCN2CCN(c3ccc(Cl)c(Cl)c3)CC2)n(-c2ccccc2)n1

Found:
1: 2010; 2: 2500; 3: 9210; 4: 617

---

Assign IC50 to each entry below.
Biological target: Human recombinant dopamine D2 receptor (Homo sapiens, UniProt P14416)
Construct: purchased PerkinElmer; host or cells: CHO cell line
Sequence (P14416 whole entry): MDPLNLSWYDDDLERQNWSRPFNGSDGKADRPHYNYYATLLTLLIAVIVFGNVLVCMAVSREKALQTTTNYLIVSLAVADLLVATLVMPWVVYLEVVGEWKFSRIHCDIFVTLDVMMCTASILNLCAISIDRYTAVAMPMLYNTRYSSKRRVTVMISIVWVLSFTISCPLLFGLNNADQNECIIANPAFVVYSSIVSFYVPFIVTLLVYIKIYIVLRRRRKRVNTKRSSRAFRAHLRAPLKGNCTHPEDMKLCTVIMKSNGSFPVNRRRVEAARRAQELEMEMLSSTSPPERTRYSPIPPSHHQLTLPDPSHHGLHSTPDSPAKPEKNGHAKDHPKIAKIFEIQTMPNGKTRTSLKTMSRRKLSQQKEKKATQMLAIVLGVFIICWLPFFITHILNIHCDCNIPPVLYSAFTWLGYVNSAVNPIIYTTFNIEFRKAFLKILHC
Test: Measurement of affinity for dopamine D2 receptor ([3H]spiperone binding)
Conditions: [3H]spiperone 0.5 nM, CHO cell line, 60 min at 27° C.
Give bare numbers, in nM.

- molecule.smiles: "CCCc1cc(CCCN2CCN(c3cccc(C)c3C)CC2)n(-c2ccccc2)n1"
  assay.result: 3790
- molecule.smiles: "CCCc1cc(CCCN2CCN(c3ccccc3F)CC2)n(-c2ccccc2)n1"
  assay.result: 696
- molecule.smiles: "CCCc1cc(CCCN2CCN(c3ccc(Cl)c(Cl)c3)CC2)n(-c2ccccc2)n1"
  assay.result: 1060
- molecule.smiles: "CCCc1cc(CCCN2CCN(c3ccccc3)CC2)n(-c2ccccc2)n1"
  assay.result: 5260
- molecule.smiles: "CC(C)c1cc(CCCN2CCN(c3ccccc3F)CC2)n(-c2ccccc2)n1"
  assay.result: 227

Lookup: Checklist item: IC50 tested on Human recombinant dopamine D2 receptor (Homo sapiens, UniProt P14416), entry CCCc1cc(CCCN2CCN(c3ccc(C)c(C)c3)CC2)n(-c2ccccc2)n1 , value?
Found: 2050

---

Biological target: human recombinant dopamine D4.2 receptor (Homo sapiens, UniProt P21917, DEL265-296)
Sequence (P21917 with tags, fused parts or gaps DEL265-296): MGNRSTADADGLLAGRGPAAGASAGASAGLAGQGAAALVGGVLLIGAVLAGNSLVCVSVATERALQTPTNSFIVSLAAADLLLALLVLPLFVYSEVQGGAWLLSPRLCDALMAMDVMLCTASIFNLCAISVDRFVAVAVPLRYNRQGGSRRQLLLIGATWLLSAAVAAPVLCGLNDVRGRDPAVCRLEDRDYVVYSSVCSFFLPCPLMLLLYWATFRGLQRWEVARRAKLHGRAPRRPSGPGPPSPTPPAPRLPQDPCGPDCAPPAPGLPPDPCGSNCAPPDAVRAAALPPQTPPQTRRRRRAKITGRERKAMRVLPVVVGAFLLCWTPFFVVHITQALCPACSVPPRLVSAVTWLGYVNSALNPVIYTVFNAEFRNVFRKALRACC
Assay: Measurement of affinity for dopamine D4 receptor ([3H]YM-09151-2 binding)
Conditions: [3H]YM-09151-2 0.1 nM, receptor expressed in CHO-K1 cells, 120 min at 25° C.
The threshold is 6 nM. Values of IC50 beneath it are tagged 1.0; values meeting or exceeding it are tagged 0.0.

- molecule.smiles: "CCCc1cc(CCCN2CCN(c3ccc(C)c(C)c3)CC2)n(-c2ccccc2)n1"
  group.label: 1.0

Lookup: I'd appreciate it if you could check whether CCCc1cc(CCCN2CCN(c3cccc(C)c3C)CC2)n(-c2ccccc2)n1 has IC50 smaller than 6 nM.
Found: 1.0

Lookup: Identify whether the compound CC(C)c1cc(CCCN2CCN(c3ccccc3F)CC2)n(-c2ccccc2)n1 records IC50 below 6 nM.
Found: 0.0

Lookup: I wonder whether CCCc1cc(CCCN2CCN(c3ccccc3F)CC2)n(-c2ccccc2)n1 has IC50 below 6 nM. Can you tell?
Found: 1.0

Lookup: Lab log: compare recorded IC50 with 6 nM; is it strictly lower for CCCc1cc(CCCN2CCN(c3ccc(Cl)c(Cl)c3)CC2)n(-c2ccccc2)n1 ?
Found: 0.0

---

Test: Rotarod deficit in mice
Type: in vivo
Conditions: mouse, in vivo; mice, ip, rod rotating at 6 rpm, 30-120 min after administration
Experimental: Each mouse was administered with a test drug, and then placed on a 1 inch diameter knurled plastic rod rotating at 6 rpm (Ugo-Basile, Milano, Italy), and the rotarod deficit (%) was obtained by counting the number of mice fallen from the rotating rod within 1 min at 30, 60, 90, and 120 min after the administration of the drug.
measurement.label: TD50 (mg/kg)
Answers are plain numbers, in mg/kg.

Lookup: Value lookup for TD50; key = CN1CCN(C2=Nc3cc(Cl)ccc3Nc3ccccc32)CC1 [clozapine, reference compound]
Found: 3.9
